Would you mind telling me the reported GI50 of each entry?
tested on: breast cancer cell lines (MCF7); assay: In vitro cytotoxicity, SRB assay, breast cancer MCF7; type: cell-based, human; conditions: Homo sapiens; breast cancer cell lines (MCF7); exposure period of at least 48 hrs; read-out: GI50 (range for the group)

// worked examples, GI50 included
* COc1ccc(C=C2c3ccccc3C(=O)c3ccccc32)cc1OCCCCOc1cc2c(cc1OC)C(=O)N1CCC[C@H]1C=N2 | 90 to 180 nM
* COc1cc(C=C2c3ccccc3C(=O)c3ccccc32)ccc1OCCCCCOc1cc2c(cc1OC)C(=O)N1CCC[C@H]1C=N2 | 90 to 180 nM
* COc1cc2c(cc1OCCCCOc1cccc(C=C3c4ccccc4C(=O)c4ccccc43)c1)N=C[C@@H]1CCCN1C2=O | 90 to 180 nM
* COc1cc2c(cc1OCCCCOc1ccc(C=C3c4ccccc4C(=O)c4ccccc43)cc1)N=C[C@@H]1CCCN1C2=O | 90 to 180 nM
* COc1cc(C=C2c3ccccc3C(=O)c3ccccc32)ccc1OCCCOc1cc2c(cc1OC)C(=O)N1CCC[C@H]1C=N2 | 90 to 180 nM

Field: next compound
Measured GI50, `COc1cc(C=C2c3ccccc3C(=O)c3ccccc32)ccc1OCCCCOc1cc2c(cc1OC)C(=O)N1CCC[C@H]1C=N2` : 90 to 180 nM

---

test system: colon cancer cell lines (Colo205); test: In vitro cytotoxicity, SRB assay, colon cancer Colo205; assay type: cell-based, human; details: Homo sapiens, COLO 205; colon cancer cell lines (Colo205); exposure period of at least 48 hrs; read-out: GI50 (range for the group)
observation.type: GI50

- COc1cc(C=C2c3ccccc3C(=O)c3ccccc32)ccc1OCCCCOc1cc2c(cc1OC)C(=O)N1CCC[C@H]1C=N2: 110 to 140 nM

// input: 4 compounds below; output: GI50 for each
1. COc1cc(C=C2c3ccccc3C(=O)c3ccccc32)ccc1OCCCOc1cc2c(cc1OC)C(=O)N1CCC[C@H]1C=N2
2. COc1cc2c(cc1OCCCCOc1ccc(C=C3c4ccccc4C(=O)c4ccccc43)cc1)N=C[C@@H]1CCCN1C2=O
3. COc1cc2c(cc1OCCCCOc1cccc(C=C3c4ccccc4C(=O)c4ccccc43)c1)N=C[C@@H]1CCCN1C2=O
4. COc1ccc(C=C2c3ccccc3C(=O)c3ccccc32)cc1OCCCCOc1cc2c(cc1OC)C(=O)N1CCC[C@H]1C=N2

A:
1: 110 to 140 nM; 2: 110 to 140 nM; 3: 110 to 140 nM; 4: 110 to 140 nM

---

test system: oral cancer cell lines (KB); test: In vitro cytotoxicity, SRB assay, oral cancer KB; format: cell-based, human; conditions: Homo sapiens; oral cancer cell lines (KB); exposure period of at least 48 hrs; read-out: GI50 (range for the group)
observation.type: GI50

- COc1cc(C=C2c3ccccc3C(=O)c3ccccc32)ccc1OCCCCCOc1cc2c(cc1OC)C(=O)N1CCC[C@H]1C=N2: 180 to 2500 nM

Required: GI50, one value per compound below.
1. COc1cc2c(cc1OCCCCOc1cccc(C=C3c4ccccc4C(=O)c4ccccc43)c1)N=C[C@@H]1CCCN1C2=O
2. COc1ccc(C=C2c3ccccc3C(=O)c3ccccc32)cc1OCCCCOc1cc2c(cc1OC)C(=O)N1CCC[C@H]1C=N2
3. COc1cc(C=C2c3ccccc3C(=O)c3ccccc32)ccc1OCCCOc1cc2c(cc1OC)C(=O)N1CCC[C@H]1C=N2
4. COc1cc(C=C2c3ccccc3C(=O)c3ccccc32)ccc1OCCCCOc1cc2c(cc1OC)C(=O)N1CCC[C@H]1C=N2
5. COc1cc2c(cc1OCCCCOc1ccc(C=C3c4ccccc4C(=O)c4ccccc43)cc1)N=C[C@@H]1CCCN1C2=O

A:
1. 180 to 2500 nM
2. 180 to 2500 nM
3. 180 to 2500 nM
4. 180 to 2500 nM
5. 180 to 2500 nM
